- EXPERIMENTAL_PROTOCOL: Chimpanzee pharmacokinetics, i.v. infusion
- Type: in vivo, chimpanzees
- PARTICULARS: in vivo, iv; female chimpanzees, single 1 mg/kg i.v. infusion (1 h), plasma, LC-MS/MS, noncompartmental, n = 2
Starred links: 1 amine or outer side, 2 acyl side, 3 side chain; linkers in the order of their positions; H or OH if unused. Positions of bridges follow the written chain, without caps; N, C: chain ends. Non-standard residues stand in square brackets, D forms with d. Residues, ends and D or L forms follow the SMILES beside them. *: point of attachment. Orn(4R-OH,5R-OCH2CH2NMe3+) = C[N+](C)(C)CCO[C@@H](N[*:3])[C@H](O)C[C@H](N[*:1])C(=O)[*:2]; pTerphenylCO(4''-OnC5H11) = CCCCCOc1ccc(-c2ccc(-c3ccc(C(=O)*)cc3)cc2)cc1; hTyr(3S-OH,4S-OH) = N[C@H](C(=O)O)[C@H](O)[C@@H](O)c1ccc(O)cc1; Pro(3S-OH,4S-Me) = C[C@H]1CN[C@H](C(=O)O)[C@H]1O; Hyp = O=C(O)[C@@H]1C[C@@H](O)CN1
MEASURE: AUC(0-inf) (µg·h/mL)
Numbers only, in µg·h/mL.

Note to self: AUC(0-inf) recorded for CCCCCOc1ccc(-c2ccc(-c3ccc(C(=O)N[C@H]4C[C@@H](O)[C@@H](OCC[N+](C)(C)C)NC(=O)[C@@H]5[C@@H](O)[C@@H](C)CN5C(=O)[C@H]([C@@H](C)O)NC(=O)[C@H]([C@H](O)[C@@H](O)c5ccc(O)cc5)NC(=O)[C@@H]5C[C@@H](O)CN5C(=O)[C@H]([C@@H](C)O)NC4=O)cc3)cc2)cc1 [CD101] ({pTerphenylCO(4''-OnC5H11)}-[Orn(4R-OH,5R-OCH2CH2NMe3+)]T[Hyp][hTyr(3S-OH,4S-OH)]T[Pro(3S-OH,4S-Me)]; lactam 1-C) was 302

Origin of values: paper PMC5365648
